test.system: ALK2/ACVR1 (Homo sapiens, UniProt Q04771)
Sequence (Q04771 21-509): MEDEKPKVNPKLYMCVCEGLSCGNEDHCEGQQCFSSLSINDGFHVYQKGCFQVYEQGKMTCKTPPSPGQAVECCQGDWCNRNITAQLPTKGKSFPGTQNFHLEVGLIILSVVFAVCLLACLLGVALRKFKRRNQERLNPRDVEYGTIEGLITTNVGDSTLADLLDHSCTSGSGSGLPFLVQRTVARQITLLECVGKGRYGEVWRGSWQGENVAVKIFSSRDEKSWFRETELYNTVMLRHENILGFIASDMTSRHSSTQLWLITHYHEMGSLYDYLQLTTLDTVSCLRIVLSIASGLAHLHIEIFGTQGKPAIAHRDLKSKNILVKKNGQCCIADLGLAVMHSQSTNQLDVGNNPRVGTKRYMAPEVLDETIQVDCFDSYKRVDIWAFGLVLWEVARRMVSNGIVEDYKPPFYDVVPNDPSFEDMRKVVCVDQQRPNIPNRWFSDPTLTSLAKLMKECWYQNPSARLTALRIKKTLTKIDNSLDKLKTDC
experiment.summary: Kinase assay (33P-ATP filter-binding), ALK2
Assay type: biochemical
assay.endpoint: IC50

molecule | assay.endpoint | assay.result
O=S(=O)(F)Oc1ccc(-c2cnc3cc(-c4ccc(N5CCOCC5)cc4)ccn23)c2ccccc12 [Compound 38] | IC50 | > 30 µM

###

test.system: ALK1/ACVRL1 (Homo sapiens, UniProt P37023)
Sequence (P37023 22-503): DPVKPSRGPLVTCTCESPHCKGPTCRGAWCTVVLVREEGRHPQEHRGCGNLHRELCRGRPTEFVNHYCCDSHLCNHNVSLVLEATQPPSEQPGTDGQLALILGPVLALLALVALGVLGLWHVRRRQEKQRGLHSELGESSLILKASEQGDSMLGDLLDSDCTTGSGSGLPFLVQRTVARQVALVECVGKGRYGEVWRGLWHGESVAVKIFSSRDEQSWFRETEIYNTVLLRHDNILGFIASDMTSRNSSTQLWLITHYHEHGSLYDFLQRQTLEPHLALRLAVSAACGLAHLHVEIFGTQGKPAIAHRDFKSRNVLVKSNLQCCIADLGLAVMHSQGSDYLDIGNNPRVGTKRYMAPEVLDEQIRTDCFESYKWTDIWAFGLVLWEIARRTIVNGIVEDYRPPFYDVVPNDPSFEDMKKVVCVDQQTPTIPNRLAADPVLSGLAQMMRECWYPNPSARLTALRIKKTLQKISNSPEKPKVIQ
experiment.summary: Kinase assay (33P-ATP filter-binding), ALK1
Format: biochemical
reported.conditions: read-out: Kinase Selectivity ALK1/ACVRL1
Binning of IC50 into classes: low (below 80 nM), mid (80 nM to below 900 nM), high (900 nM or more)

compound | group
Cc1cc(-c2cnc3cc(-c4ccc(C5COC(C)CN5)cc4)ccn23)c2ccccc2n1 (stereo not shown) | low
Cc1cc(-c2cnc3cc(-c4ccc(C5COCCN5)cc4)ccn23)c2cc(F)cc(F)c2n1 (stereo not shown) | low
Cc1cc(-c2cnc3cc(-c4ccc(N5CCC6(CCCCN6)CC5)cc4)ccn23)c2cc(F)cc(F)c2n1 | mid
Cc1cc(-c2cnc3cc(-c4ccc(N5CCCC6(CCCN6)C5)cc4)ccn23)c2cc(F)cc(F)c2n1 (stereo not shown) | high
Cc1cc(-c2cnc3cc(-c4ccc(C5COCCN5)cc4)ccn23)c2cc(F)ccc2n1 (stereo not shown) | low
Cc1cc(-c2cnc3cc(N4CC5(CCNCC5)C4)ccn23)c2cc(F)cc(F)c2n1 | high
Cc1cc(-c2cnc3cc(-c4ccc(C5COCC(C)N5)cc4)ccn23)c2cc(F)cc(F)c2n1 (stereo not shown) | low
c1ncc2scc(-c3cnc4cc(-c5ccc(C6CNCCN6)cc5)ccn34)c2n1 (stereo not shown) | high
CN1CCN(c2ccc(-c3ccn4c(-c5ccnc6ncccc56)cnc4c3)cc2)CC1 | mid
Cc1cc(-c2cnc3cc(-c4ccc(N5CCNC6(CCC6)C5)cc4)ccn23)c2cc(F)cc(F)c2n1 | mid
Cc1cc(-c2cnc3cc(-c4ccc(N5CCC6(CCNCC6)C5)cc4)ccn23)c2cc(F)cc(F)c2n1 | high
O=C1CNC(=O)C(c2ccc(-c3ccn4c(-c5cccc6ncccc56)cnc4c3)cc2)N1 (stereo not shown) | mid
Cc1cc(-c2cnc3cc(-c4ccc(N5CCC6(CCC6)C5)cc4)ccn23)c2cc(F)cc(F)c2n1 | high
Cc1cc(-c2cnc3cc(-c4ccc(C5COCCCN5)cc4)ccn23)c2cc(F)ccc2n1 (stereo not shown) | low
Cc1cc(-c2cnc3cc(-c4ccc(C5COC6(CCNCC6)CN5)cc4)ccn23)c2cc(F)cc(F)c2n1 (stereo not shown) | mid
Cc1cc(-c2cnc3cc(-c4ccc(N5CCNC(C)(C)C5)cc4)ccn23)c2cc(F)cc(F)c2n1 | mid
c1cnc2c(-c3cnc4cc(-c5ccc(C6CNCCN6)cc5)ccn34)ccnc2c1 (stereo not shown) | low
Cc1cc(-c2cnc3cc(-c4ccc(C5COC(C)CN5)cc4)ccn23)c2cc(F)cc(F)c2n1 (stereo not shown) | low
Cc1cc(-c2cnc3cc(-c4ccc(N5CCC6(CCC6)CC5)cc4)ccn23)c2cc(F)cc(F)c2n1 | high
Cc1cc(-c2cnc3cc(-c4ccc(C5COCCCN5)cc4)ccn23)c2cc(F)cc(F)c2n1 (stereo not shown) | low
Cc1cc(-c2cnc3cc(-c4ccc(N5CCC6(CCNC6)CC5)cc4)ccn23)c2cc(F)cc(F)c2n1 | high
Cc1cc(-c2cnc3cc(-c4ccc(C5COCCN5)cc4)ccn23)c2ccccc2n1 (stereo not shown) | low
Cc1cc(-c2cnc3cc(-c4ccc(N5CCC6(CCCNC6)C5)cc4)ccn23)c2cc(F)cc(F)c2n1 (stereo not shown) | high
NS(=O)(=O)c1ccc(-c2cnc3cc(-c4ccc(C5CNCCN5)cc4)ccn23)c2ccccc12 (stereo not shown) | mid
Cc1cc(-c2cnc3cc(-c4ccc(N5CCC6(CCCNC6)CC5)cc4)ccn23)c2cc(F)cc(F)c2n1 | high
c1cnc2scc(-c3cnc4cc(-c5ccc(C6CNCCN6)cc5)ccn34)c2c1 (stereo not shown) | low
c1cc(-c2cnc3cc(-c4ccc(C5CNCCN5)cc4)ccn23)c2cccnc2c1 (stereo not shown) | low
c1cnc2nccc(-c3cnc4cc(-c5ccc(C6CNCCN6)cc5)ccn34)c2c1 (stereo not shown) | mid
c1cc(-c2cnc3cc(-c4ccc(C5CNCCN5)cc4)ccn23)ccn1 (stereo not shown) | mid

Origin of values: patent US10745400B2
